Each entry below carries its reported Potentiation Index at RMA concentration 10 nM.
- System: AR 1.0 cells
- Test protocol: Potentiation index with doxorubicin titration
- Format: cell-based, mouse
- Condition context: Table C1, RMA 10 nM
Outcome measure: Potentiation Index at RMA concentration 10 nM

> print(dat)
                         structure.as.smiles  experimental.result
 1  CCCCN(CCc1ccc(NC(=O)c2ccccc2NC(=O)c2cnc3ccccc3c2)cc1)Cc1ccc(OC)c(OC)c1                  1.5
 2  COc1cc(CN(C)CCc2ccc(NC(=O)c3ccccc3NC(=O)c3cnc4ccccc4c3)cc2)cc(OC)c1OC                    1
 3  CN(CCc1ccc(NC(=O)c2ccccc2NC(=O)c2cnc3ccccc3c2)cc1)Cc1ccc(F)c(F)c1                  1.0
 4  COc1cc2c(cc1OC)CN(CCc1ccc(NC(=O)c3c(C)csc3NC(=O)c3cnc4ccccc4n3)cc1)CC2                  6.7
 5  O=C(Nc1ccccc1C(=O)Nc1ccc(CCN2Cc3ccccc3C2)cc1)c1cnc2ccccc2c1                  1.2
 6  COc1cc2c(cc1OC)CN(CCOc1ccc(NC(=O)c3ccccc3NC(=O)c3cnc4ccccc4n3)cc1)CC2                  1.1
 7  COc1cc2c(cc1OC)CN(CCSc1ccc(NC(=O)c3ccccc3NC(=O)c3cnc4ccccc4c3)cc1)CC2                  1.0
 8  CN(CCc1ccc(NC(=O)c2ccccc2NC(=O)c2cnc3ccccc3c2)cc1)Cc1ccc2c(c1)OCCO2                  1.0
 9  CCCCOc1ccc(CN(C)CCc2ccc(NC(=O)c3ccccc3NC(=O)c3cnc4ccccc4c3)cc2)cc1OC                  1.0
10  COc1cc2c(cc1OC)CN(CCc1ccc(NC(=O)c3cc(N(C)C)ccc3NC(=O)c3cnc4ccccc4c3)cc1)CC2                 1.45
11  CCN(CCc1ccc(NC(=O)c2ccccc2NC(=O)c2cnc3ccccc3c2)cc1)Cc1ccc(OC)c(OC)c1                  2.6
12  COc1ccc(CN(C)Cc2ccc(NC(=O)c3ccccc3NC(=O)c3cccnc3)cc2)cc1OC(C)C                  1.2
13  CN(CCc1ccc(NC(=O)c2ccccc2NC(=O)c2cnc3ccccc3c2)cc1)Cc1ccc(N(C)C)cc1                  1.8
14  CCOc1cc2c(cc1OCC)CN(CCc1ccc(NC(=O)c3ccccc3NC(=O)c3cnc4ccccc4c3)cc1)CC2                  1.4
